assay: Cmax in male Sprague-Dawley rat at 5 mg/kg, IG; type: ADME, organism-based; details: in vivo, po

{"chemicalString": "COc1ccc(CN2C3CC2CN(c2ccc(-c4nc(-c5cnn(C)c5)cc5ncccc45)cn2)C3)cc1C#N", "Cmax [ng/mL]": 140}

* * *

experiment: AUC (0 to infinity) in male Sprague-Dawley rat at 5 mg/kg, IG; type: ADME, organism-based; conditions: in vivo, po
assayEndpoint: AUC(0-inf) (ng·h/mL)

{"chemicalString": "COc1ccc(CN2C3CC2CN(c2ccc(-c4nc(-c5cnn(C)c5)cc5ncccc45)cn2)C3)cc1C#N", "assayEndpoint": "AUC(0-inf)", "observed": 686}

* * *

target: Vascular endothelial growth factor receptor 3 (Homo sapiens, UniProt P35916)
assayEndpoint: IC50 (nM)

{"chemicalString": "COc1ccc(CN2C3CC2CN(c2ccc(-c4nc(-c5cnn(C)c5)cc5ncccc45)cn2)C3)cc1C#N", "assayEndpoint": "IC50", "observed": 5.1}

* * *

experiment: Clearance in male Sprague-Dawley rat at 5 mg/kg, IG; type: ADME, organism-based; settings: in vivo, po

{"chemicalString": "COc1ccc(CN2C3CC2CN(c2ccc(-c4nc(-c5cnn(C)c5)cc5ncccc45)cn2)C3)cc1C#N", "CL/F [mL/min/kg]": 122}

* * *

molecular target: Proto-oncogene tyrosine-protein kinase receptor Ret (Homo sapiens, UniProt P07949, G810C); assay: Inhibition of RET G810C mutant (unknown origin) by FRET-based ZLyte kinase assay
Sequence (P07949 29-1114 G810C limits assumed): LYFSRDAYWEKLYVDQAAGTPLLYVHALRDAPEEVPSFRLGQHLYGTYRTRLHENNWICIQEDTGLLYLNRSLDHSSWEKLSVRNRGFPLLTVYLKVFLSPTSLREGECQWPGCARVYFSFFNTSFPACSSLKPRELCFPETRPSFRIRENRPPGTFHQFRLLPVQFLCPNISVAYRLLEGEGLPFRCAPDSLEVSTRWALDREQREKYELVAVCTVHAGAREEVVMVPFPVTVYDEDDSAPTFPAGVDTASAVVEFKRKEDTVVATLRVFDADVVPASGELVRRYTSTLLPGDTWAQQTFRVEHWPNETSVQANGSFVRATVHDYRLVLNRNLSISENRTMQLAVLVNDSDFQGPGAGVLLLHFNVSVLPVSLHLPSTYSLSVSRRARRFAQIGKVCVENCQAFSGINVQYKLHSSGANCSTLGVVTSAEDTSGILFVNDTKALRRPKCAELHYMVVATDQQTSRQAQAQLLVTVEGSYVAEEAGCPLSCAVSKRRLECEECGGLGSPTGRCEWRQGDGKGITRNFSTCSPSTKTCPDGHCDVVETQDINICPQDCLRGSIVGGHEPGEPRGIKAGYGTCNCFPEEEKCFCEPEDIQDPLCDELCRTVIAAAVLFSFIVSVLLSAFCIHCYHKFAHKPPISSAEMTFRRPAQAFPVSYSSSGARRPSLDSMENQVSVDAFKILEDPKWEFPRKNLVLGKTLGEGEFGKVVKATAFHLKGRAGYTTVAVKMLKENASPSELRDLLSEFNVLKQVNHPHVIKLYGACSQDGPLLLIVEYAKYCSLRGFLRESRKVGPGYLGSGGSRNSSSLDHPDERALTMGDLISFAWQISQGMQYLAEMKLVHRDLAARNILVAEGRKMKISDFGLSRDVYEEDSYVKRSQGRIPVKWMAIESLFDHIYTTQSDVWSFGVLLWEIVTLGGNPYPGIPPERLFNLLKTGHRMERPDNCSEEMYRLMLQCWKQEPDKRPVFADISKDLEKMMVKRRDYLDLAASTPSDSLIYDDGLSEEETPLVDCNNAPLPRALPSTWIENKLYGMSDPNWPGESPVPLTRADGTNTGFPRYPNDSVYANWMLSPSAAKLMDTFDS
pIC50: −log10 of the molar value.

{"chemicalString": "COc1ccc(CN2C3CC2CN(c2ccc(-c4nc(-c5cnn(C)c5)cc5ncccc45)cn2)C3)cc1C#N", "pIC50": 8.15}

* * *

assay: Half life in male Sprague-Dawley rat at 5 mg/kg, IG; format: ADME, organism-based; settings: in vivo, po
assayEndpoint: half-life (h)

{"chemicalString": "COc1ccc(CN2C3CC2CN(c2ccc(-c4nc(-c5cnn(C)c5)cc5ncccc45)cn2)C3)cc1C#N", "unitInfo": "h", "observed": 4.6}

* * *

test: Clearance in male Sprague-Dawley rat at 1 mg/kg, iv; assay type: ADME, organism-based; settings: in vivo

{"chemicalString": "COc1ccc(CN2C3CC2CN(c2ccc(-c4nc(-c5cnn(C)c5)cc5ncccc45)cn2)C3)cc1C#N", "clearance [mL/min/kg]": 40}

* * *

target: Proto-oncogene tyrosine-protein kinase receptor Ret (Homo sapiens, UniProt P07949, G810R); assay: Inhibition of RET G810R mutant (unknown origin) by FRET-based ZLyte kinase assay
Sequence (P07949 29-1114 G810R limits assumed): as the sequence (P07949 29-1114 G810C limits assumed) above, with C782R counted along it
Measured log10(IC50), listed per entry for reference.
assayEndpoint: log10(IC50) (log10 of the value in nM)

{"chemicalString": "COc1ccc(CN2C3CC2CN(c2ccc(-c4nc(-c5cnn(C)c5)cc5ncccc45)cn2)C3)cc1Br", "target": "Proto-oncogene tyrosine-protein kinase receptor Ret (Homo sapiens, UniProt P07949, G810R)", "observed": 2.03}
{"chemicalString": "Cn1cc(-c2cc3ncccc3c(-c3ccc(N4CC5CC(C4)N5Cc4ccc(Cl)nc4)nc3)n2)cn1", "target": "Proto-oncogene tyrosine-protein kinase receptor Ret (Homo sapiens, UniProt P07949, G810R)", "observed": 2.56}
{"chemicalString": "COc1ccc(CN2C3CC2CN(c2ccc(-c4nc(Cl)cc5ncccc45)cn2)C3)cn1", "target": "Proto-oncogene tyrosine-protein kinase receptor Ret (Homo sapiens, UniProt P07949, G810R)", "observed": 2.36}
{"chemicalString": "COc1ccc(CN2C3CC2CN(c2ccc(-c4nc(-c5cnn(C)c5)cc5ncccc45)cn2)C3)cn1", "target": "Proto-oncogene tyrosine-protein kinase receptor Ret (Homo sapiens, UniProt P07949, G810R)", "observed": 1.75}
{"chemicalString": "COc1ccc(CN2C3CC2CN(c2ccc(-c4nc(C)cc5ncccc45)cn2)C3)cn1", "target": "Proto-oncogene tyrosine-protein kinase receptor Ret (Homo sapiens, UniProt P07949, G810R)", "observed": 2.62}
{"chemicalString": "COc1ccc(CN2C3CC2CN(c2ccc(-c4nc(C5CC5)cc5ncccc45)cn2)C3)cn1", "target": "Proto-oncogene tyrosine-protein kinase receptor Ret (Homo sapiens, UniProt P07949, G810R)", "observed": 2.73}
{"chemicalString": "COc1ccc(CN2C3CC2CN(c2ccc(-c4nc(-c5cnn(C)c5)cc5ncccc45)cn2)C3)cc1C#N", "target": "Proto-oncogene tyrosine-protein kinase receptor Ret (Homo sapiens, UniProt P07949, G810R)", "observed": 0.92}
{"chemicalString": "COc1ccc(CN2C3CC2CN(c2ccc(-c4nccc5ncccc45)cn2)C3)cn1", "target": "Proto-oncogene tyrosine-protein kinase receptor Ret (Homo sapiens, UniProt P07949, G810R)", "observed": 2.27}
{"chemicalString": "COc1ccc(CC(=O)N2C3CC2CN(c2ccc(-c4nc(-c5cnn(C)c5)cc5ncccc45)cn2)C3)cn1", "target": "Proto-oncogene tyrosine-protein kinase receptor Ret (Homo sapiens, UniProt P07949, G810R)", "observed": 2.12}

* * *

assay: Half life in male Sprague-Dawley rat at 1 mg/kg, iv; format: ADME, organism-based; conditions: in vivo
assayEndpoint: half-life (min)

{"chemicalString": "COc1ccc(CN2C3CC2CN(c2ccc(-c4nc(-c5cnn(C)c5)cc5ncccc45)cn2)C3)cc1C#N", "assayEndpoint": "half-life", "unitInfo": "min", "observed": 300}

* * *

target: Epithelial discoidin domain-containing receptor 1 (Homo sapiens)
Sequence (Q08345 whole entry, the tested form may be a part): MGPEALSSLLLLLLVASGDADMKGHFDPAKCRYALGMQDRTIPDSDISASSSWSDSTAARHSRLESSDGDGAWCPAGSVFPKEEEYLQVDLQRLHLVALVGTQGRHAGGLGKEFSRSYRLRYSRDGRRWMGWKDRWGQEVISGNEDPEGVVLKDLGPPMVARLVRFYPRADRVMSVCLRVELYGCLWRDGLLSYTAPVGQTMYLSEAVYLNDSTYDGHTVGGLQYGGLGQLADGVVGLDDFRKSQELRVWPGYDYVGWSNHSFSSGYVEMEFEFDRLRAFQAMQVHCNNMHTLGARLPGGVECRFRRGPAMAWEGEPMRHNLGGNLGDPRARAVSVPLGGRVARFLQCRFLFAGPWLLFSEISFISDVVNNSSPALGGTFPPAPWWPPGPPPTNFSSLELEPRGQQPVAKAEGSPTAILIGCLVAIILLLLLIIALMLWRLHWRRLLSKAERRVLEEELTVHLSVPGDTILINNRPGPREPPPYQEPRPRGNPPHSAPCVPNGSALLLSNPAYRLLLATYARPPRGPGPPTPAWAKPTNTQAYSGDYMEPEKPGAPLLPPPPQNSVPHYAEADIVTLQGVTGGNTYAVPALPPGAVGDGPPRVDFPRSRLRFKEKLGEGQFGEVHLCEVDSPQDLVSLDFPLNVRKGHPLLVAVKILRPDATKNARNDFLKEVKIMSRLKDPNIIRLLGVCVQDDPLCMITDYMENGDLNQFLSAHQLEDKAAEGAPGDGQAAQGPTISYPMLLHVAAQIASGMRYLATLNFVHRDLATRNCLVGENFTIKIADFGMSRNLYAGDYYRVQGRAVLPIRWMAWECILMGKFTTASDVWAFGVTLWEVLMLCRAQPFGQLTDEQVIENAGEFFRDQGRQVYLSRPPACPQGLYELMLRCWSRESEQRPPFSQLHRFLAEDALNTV
pIC50: −log10 of the molar value.
assayEndpoint: pIC50

{"chemicalString": "COc1ccc(CN2C3CC2CN(c2ccc(-c4nc(-c5cnn(C)c5)cc5ncccc45)cn2)C3)cc1C#N", "observed": 6.48}

* * *

molecular target: Receptor-type tyrosine-protein kinase FLT3 (Homo sapiens, UniProt P36888); assay: Inhibition of FLT3 (unknown origin) by FRET-based Z-Lyte kinase assay
Sequence (P36888 whole entry): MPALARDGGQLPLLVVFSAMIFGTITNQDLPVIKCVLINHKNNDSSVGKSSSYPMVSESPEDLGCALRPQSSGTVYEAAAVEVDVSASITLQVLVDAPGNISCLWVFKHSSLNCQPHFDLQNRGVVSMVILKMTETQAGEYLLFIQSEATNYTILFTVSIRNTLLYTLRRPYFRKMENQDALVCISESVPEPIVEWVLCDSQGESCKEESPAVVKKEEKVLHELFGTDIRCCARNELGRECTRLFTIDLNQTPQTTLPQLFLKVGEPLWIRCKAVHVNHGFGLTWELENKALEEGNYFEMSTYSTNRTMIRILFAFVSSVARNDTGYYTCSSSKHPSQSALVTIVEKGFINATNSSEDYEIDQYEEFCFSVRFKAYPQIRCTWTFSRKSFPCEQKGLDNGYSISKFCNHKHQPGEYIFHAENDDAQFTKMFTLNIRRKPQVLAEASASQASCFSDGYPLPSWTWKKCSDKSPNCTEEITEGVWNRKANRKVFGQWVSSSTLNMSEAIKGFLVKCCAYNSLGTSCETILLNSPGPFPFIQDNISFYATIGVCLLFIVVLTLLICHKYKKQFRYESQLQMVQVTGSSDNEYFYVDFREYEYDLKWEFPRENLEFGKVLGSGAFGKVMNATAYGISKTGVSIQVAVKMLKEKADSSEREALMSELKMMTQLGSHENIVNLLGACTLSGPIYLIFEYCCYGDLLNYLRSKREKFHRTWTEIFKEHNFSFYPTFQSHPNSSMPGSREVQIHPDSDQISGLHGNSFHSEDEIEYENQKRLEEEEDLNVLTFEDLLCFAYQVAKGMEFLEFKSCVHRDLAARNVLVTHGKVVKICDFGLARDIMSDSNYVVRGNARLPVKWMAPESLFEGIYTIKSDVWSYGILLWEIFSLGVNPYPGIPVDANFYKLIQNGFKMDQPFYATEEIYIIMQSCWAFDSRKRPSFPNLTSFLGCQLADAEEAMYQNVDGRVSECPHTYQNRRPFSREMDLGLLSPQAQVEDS
pIC50: −log10 of the molar value.
assayEndpoint: pIC50

{"chemicalString": "COc1ccc(CN2C3CC2CN(c2ccc(-c4nc(-c5cnn(C)c5)cc5ncccc45)cn2)C3)cc1C#N", "observed": 7.28}

* * *

Measured pIC50, listed per entry for reference.
molecular target: Proto-oncogene tyrosine-protein kinase receptor Ret (Homo sapiens, UniProt P07949, G810R); assay: Inhibition of RET G810R mutant (unknown origin) by FRET-based ZLyte kinase assay
pIC50: −log10 of the molar value.
assayEndpoint: pIC50

{"chemicalString": "COc1ccc(CN2C3CC2CN(c2ccc(-c4nc(-c5cc[nH]n5)cc5ncccc45)cn2)C3)cn1", "observed": 6.96}
{"chemicalString": "Cc1ccc(CN2C3CC2CN(c2ccc(-c4nc(-c5cnn(C)c5)cc5ncccc45)cn2)C3)cn1", "observed": 6.36}
{"chemicalString": "Cn1cc(-c2cc3ncccc3c(-c3ccc(N4CC5CC(C4)N5Cc4cccnc4)nc3)n2)cn1", "observed": 6.43}
{"chemicalString": "COc1ccc(CN2C3CC2CN(c2ccc(-c4nc(-c5cnn(C)c5)cc5ncccc45)cn2)C3)cc1Cl", "observed": 7.07}
{"chemicalString": "Cn1cc(-c2cc3ncccc3c(-c3ccc(N4CC5CC(C4)N5C(=O)Cc4cc(F)cc(F)c4)nc3)n2)cn1", "observed": 6.66}
{"chemicalString": "COc1ccc(CN2C3CC2CN(c2ccc(-c4nc(-c5cn[nH]c5)cc5ncccc45)cn2)C3)cn1", "observed": 7.16}
{"chemicalString": "COc1ccc(CN2C3CC2CN(c2ccc(-c4nc(-c5cnn(C)c5)cc5ncccc45)cn2)C3)cc1", "observed": 6.94}
{"chemicalString": "Cn1cc(-c2cc3ncccc3c(-c3ccc(N4CC5CC(C4)N5C(=O)Cc4cccc(F)c4)nc3)n2)cn1", "observed": 6.83}

* * *

assay: Oral bioavailability in male Sprague-Dawley rat at 5 mg/kg, IG; type: ADME, organism-based; conditions: in vivo
assayEndpoint: bioavailability (%)

{"chemicalString": "COc1ccc(CN2C3CC2CN(c2ccc(-c4nc(-c5cnn(C)c5)cc5ncccc45)cn2)C3)cc1C#N", "assayEndpoint": "bioavailability", "observed": 30.4}

* * *

target: Vascular endothelial growth factor receptor 1 (Homo sapiens)
Sequence (P17948 whole entry): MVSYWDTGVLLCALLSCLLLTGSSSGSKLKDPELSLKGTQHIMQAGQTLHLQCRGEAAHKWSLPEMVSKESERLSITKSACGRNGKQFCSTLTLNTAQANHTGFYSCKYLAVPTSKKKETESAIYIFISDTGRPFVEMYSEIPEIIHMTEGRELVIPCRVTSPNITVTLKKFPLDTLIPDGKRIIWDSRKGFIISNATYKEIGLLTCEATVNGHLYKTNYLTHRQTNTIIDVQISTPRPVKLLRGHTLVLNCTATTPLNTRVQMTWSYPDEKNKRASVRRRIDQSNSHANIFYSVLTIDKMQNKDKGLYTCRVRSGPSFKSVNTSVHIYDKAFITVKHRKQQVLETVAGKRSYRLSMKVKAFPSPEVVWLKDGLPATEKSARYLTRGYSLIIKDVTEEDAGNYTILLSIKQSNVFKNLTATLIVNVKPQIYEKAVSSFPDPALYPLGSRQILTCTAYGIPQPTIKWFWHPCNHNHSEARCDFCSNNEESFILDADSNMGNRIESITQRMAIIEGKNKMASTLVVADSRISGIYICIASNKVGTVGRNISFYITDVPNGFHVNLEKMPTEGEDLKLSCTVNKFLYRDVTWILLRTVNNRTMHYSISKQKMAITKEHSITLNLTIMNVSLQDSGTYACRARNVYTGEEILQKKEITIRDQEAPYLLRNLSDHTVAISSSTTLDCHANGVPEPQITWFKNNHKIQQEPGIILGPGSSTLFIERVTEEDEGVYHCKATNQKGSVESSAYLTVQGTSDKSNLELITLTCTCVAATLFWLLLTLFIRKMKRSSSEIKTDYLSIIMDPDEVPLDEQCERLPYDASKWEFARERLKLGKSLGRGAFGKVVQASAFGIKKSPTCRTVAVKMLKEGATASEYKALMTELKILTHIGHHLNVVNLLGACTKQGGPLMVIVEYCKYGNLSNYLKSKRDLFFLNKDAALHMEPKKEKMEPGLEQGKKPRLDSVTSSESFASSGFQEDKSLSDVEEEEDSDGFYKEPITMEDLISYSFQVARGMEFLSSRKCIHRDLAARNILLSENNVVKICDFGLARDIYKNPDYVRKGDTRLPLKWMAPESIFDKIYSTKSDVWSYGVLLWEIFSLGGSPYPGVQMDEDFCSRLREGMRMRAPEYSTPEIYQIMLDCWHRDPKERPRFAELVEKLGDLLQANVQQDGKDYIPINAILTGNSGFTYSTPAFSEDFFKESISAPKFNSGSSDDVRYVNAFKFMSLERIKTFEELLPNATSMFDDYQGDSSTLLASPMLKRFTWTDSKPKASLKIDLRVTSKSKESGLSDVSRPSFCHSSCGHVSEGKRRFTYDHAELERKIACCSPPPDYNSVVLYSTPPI
pIC50: −log10 of the molar value.

{"chemicalString": "COc1ccc(CN2C3CC2CN(c2ccc(-c4nc(-c5cnn(C)c5)cc5ncccc45)cn2)C3)cc1C#N", "target": "Vascular endothelial growth factor receptor 1 (Homo sapiens)", "pIC50": 7.46}

* * *

biological target: Proto-oncogene tyrosine-protein kinase receptor Ret (Homo sapiens, UniProt P07949, V804M); test: Inhibition of RET V804M mutant (unknown origin) by FRET-based ZLyte kinase assay
Sequence (P07949 29-1114 V804M limits assumed): as the sequence (P07949 29-1114 G810C limits assumed) above, with V776M, C782G counted along it
assayEndpoint: IC50

{"chemicalString": "COc1ccc(CN2C3CC2CN(c2ccc(-c4nc(-c5cnn(C)c5)cc5ncccc45)cn2)C3)cc1C#N", "target": "Proto-oncogene tyrosine-protein kinase receptor Ret (Homo sapiens, UniProt P07949, V804M)", "observed": "1.8 nM"}

The values you see were collected from ChEMBL document CHEMBL6127078.
